Test system: MKL-1
Assay: qHTS assay to identify novel small-molecules to repurpose for Merkel cell carcinoma treatment (AID 1296009); further: nearly all actives have a fitted effect of over 60% in size
Conditions: MCC and control cell lines, CellTiter-Glo viability, 72 h; series mostly up to 46 µM
Results filed as inconclusive are left out. The source made the active and inactive calls. The call rests on the fitted dose curve; in most records, active means well fitted inhibition curve with a large enough effect; inconclusive means small, poorly fitted or top-dose-only effect; inactive means flat fitted curve, though single readings scatter. Residues, ends and D or L forms follow the SMILES beside them. *: point of attachment. Cbz = O=C(OCc1ccccc1)*
Respond only with the outcome that fits, drawn from active, inactive

Query :: // return assay outcome for `CC(=O)OCC(=O)[C@@]12N=C(C)O[C@H]1C[C@H]1[C@@H]3CCC4=CC(=O)C=C[C@]4(C)[C@@H]3[C@@H](O)C[C@@]12C`
Result :: inactive

Query :: // return assay outcome for `Cc1[nH]c(C=C2C(=O)Nc3ccccc32)c(C)c1CCC(=O)O`
Result :: active

Query :: // return assay outcome for `CC(C)OC(=O)[C@H](C)N[P@](=O)(OC[C@H]1O[C@@H](n2ccc(=O)[nH]c2=O)[C@](C)(F)[C@H]1O)Oc1ccccc1`
Result :: inactive

Query :: // return assay outcome for `C=Cc1c(C)c2cc3nc(cc4[nH]c(cc5nc(cc1[nH]2)C(C)=C5CCC(=O)O)c(CCC(=O)OC)c4C)[C@@]1(C)C3=CC=C(C(=O)OC)[C@H]1C(=O)OC`
Result :: active

Query :: // return assay outcome for `N#CC(=C(O)c1ccc(Cl)cc1Cl)c1nc2cc(Cl)ccc2c(=O)[nH]1`
Result :: inactive

Query :: // return assay outcome for `N#CNC(=NCCCCCCOc1ccc(Cl)cc1)Nc1ccncc1`
Result :: active

Query :: // return assay outcome for CC(C)C[C@@H](C=O)NC(=O)[C@H](CC(C)C)NC(=O)[C@H](CC(C)C)NC(=O)OCc1ccccc1 (Cbz-Leu-Leu-Leu-aldehyde)
Result :: active

Query :: // return assay outcome for `C[N+]1(C)[C@@H]2C[C@@H](OC(=O)C(O)(c3cccs3)c3cccs3)C[C@H]1[C@@H]1O[C@@H]12`
Result :: inactive

----------
Assay: S16 Schwann cell PMP22 intronic element firefly luciferase assay (AID 624032); further: nearly all actives have a fitted effect of over 30% in size; further: potency means the concentration at half of the fitted maximal effect
Details: S16 rat Schwann cells, PMP22 element FLuc, 24 h; series mostly up to 57.5 µM
Inconclusive results are not listed. Calls of active or inactive are those of the source. Calls come from the whole dose curve; as a rule, active = well fitted inhibition curve with a large enough effect; inconclusive = small, poorly fitted or top-dose-only effect; inactive = no such curve, though single readings can be large or run the other way.
measure_name: Potency

OCC(O)C(O)C(O)CO (centres undefined): inactive
CCCCCCCCCCCC(CC1OC(=O)C1CCCCCC)OC(=O)C(CC(C)C)NC=O (centres undefined): 7.21 µM (active)
Nc1nc2c(c(=O)[nH]1)N(C=O)[C@H](CNc1ccc(C(=O)N[C@@H](CCC(=O)O)C(=O)O)cc1)CN2: inactive
COc1ccc2c(c1OC)C(=O)OC2[C@H]1c2c(cc3c(c2OC)OCO3)CCN1C (some centres undefined): inactive

----------
Experiment: qHTS drug screen for cell cycle checkpoint inhibitors in PARPi-resistant BRCA-mutant ovarian cancer cell lines. (AID 1963452)
Settings: PEO1/OlaR viability, CellTiter-Glo luminescence, 96 h; measured here: PEO4 Z-AUC; stronger effect = lower value
Z-AUC vs 0.3: less than gives yes; not less than gives no.

Query :: In the record for O=C1CSC(=O)N1C(CCc1ccncc1)COc1ccc(-c2cccc([N+](=O)[O-])c2)cc1 (centres undefined) , is Z-AUC less than 0.3?
Result :: yes

Query :: In the record for `CC(=O)OC[C@@H]1O[C@@H](n2ccc(=O)[nH]c2=O)[C@H](OC(C)=O)[C@H]1OC(C)=O` , is Z-AUC less than 0.3?
Result :: yes

Query :: In the record for `CC(C)[C@H](CO)Nc1nc(Nc2cccc(Cl)c2)c2ncn(C(C)C)c2n1` , is Z-AUC less than 0.3?
Result :: yes

Query :: In the record for CC1=C(C(=O)Nc2cc3cn[nH]c3cc2F)C(c2ccc(Cl)cc2F)N=C(c2ccnc(Cl)c2)N1 (centres undefined) , is Z-AUC less than 0.3?
Result :: no

Query :: In the record for C[C@H](CCC(=O)O)[C@H]1CCC2C3C[C@H](O)[C@@H]4C[C@H](O)CC[C@]4(C)C3CC[C@@]21C (some centres undefined) , is Z-AUC less than 0.3?
Result :: yes

Query :: In the record for `CCN(CC)CCCCNc1ncc2c(n1)N(C)C(=O)N(c1c(Cl)c(OC)cc(OC)c1Cl)C2` , is Z-AUC less than 0.3?
Result :: no

Query :: In the record for `N#Cc1c(NC(=O)c2cccc3ccccc23)sc2c1CCCC2` , is Z-AUC less than 0.3?
Result :: yes

Query :: In the record for `COc1cc(C(=O)NC2CCN(C)CC2)ccc1Nc1ncc2c(n1)N(C1CCCC1)CCC(=O)N2C(C)C` , is Z-AUC less than 0.3?
Result :: yes

Query :: In the record for `CC(=O)O[C@H]1C[C@@H]2CC[C@H]3[C@H]4C[C@H]([N+]5(C)CCCCC5)[C@@H](OC(C)=O)[C@@]4(C)CC[C@@H]3[C@@]2(C)C[C@H]1[N+]1(C)CCCCC1` , is Z-AUC less than 0.3?
Result :: no

The values you see were collected from PubChem BioAssay (NCATS).
